Entry source: patent US20240158446A1

assay.system: GDP-bound KRAS wild-type protein (Homo sapiens, UniProt P01116)
Sequence (P01116 whole entry): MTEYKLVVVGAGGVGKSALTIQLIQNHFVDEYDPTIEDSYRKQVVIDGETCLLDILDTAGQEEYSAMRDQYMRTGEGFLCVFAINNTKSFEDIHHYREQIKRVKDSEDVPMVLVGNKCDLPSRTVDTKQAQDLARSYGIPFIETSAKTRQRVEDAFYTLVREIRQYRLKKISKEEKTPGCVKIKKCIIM
assay: Binding to KRAS by surface plasmon resonance (SPR), Single Cycle Kinetics
run.parameters: SPR, Single Cycle Kinetics, GDP-bound KRAS wild-type protein; read-out: KRAS KD
recorded.metric: Kd (nM)
One number for each entry, in nM.

Sample records with Kd:
- compound: "CCO[C@@H]1C[C@H]2C(=O)NC3(CC(C)(C)C3)C(=O)N(C)[C@@H](C3CCCC3)C(=O)N(C)[C@H](C(=O)N(C)C)CC(=O)N(C)[C@@H](COC)C(=O)N[C@@H]([C@@H](C)CC)C(=O)N(C)CC(=O)N(C)[C@H]3C/C=C\\CCN(C3=O)[C@@H](Cc3ccc(C(F)(F)F)cc3)C(=O)N(C)CC(=O)N[C@@H](CCc3ccc(C(F)(F)F)c(Cl)c3)C(=O)N2C1 [PP1753]"
  Kd, nM: 0.038
- compound: "CCO[C@@H]1C[C@H]2C(=O)NC3(CC(C)(C)C3)C(=O)N(C)[C@@H](C(CC)CC)C(=O)N(C)[C@H](C(=O)N(C)C)CC(=O)N(C)[C@@H](CC3CC3)C(=O)N[C@@H]([C@@H](C)CC)C(=O)N(C)CC(=O)N(C)[C@H]3C/C=C\\CCN(C3=O)[C@@H](Cc3ccc(C(F)(F)F)cc3)C(=O)N(C)CC(=O)N[C@@H](CCc3cc(F)c(C(F)(F)F)c(F)c3)C(=O)N2C1 [PP2119]"
  Kd, nM: 5

Now for another entry.
Prompt: So what does the record say about Kd for CCC[C@H]1C(=O)N[C@@H]([C@@H](C)CC)C(=O)N(C)CC(=O)N(C)[C@H]2C/C=C\CCN(C2=O)[C@@H](Cc2ccc(C(F)(F)F)cc2)C(=O)N(C)CC(=O)N[C@@H](CCc2ccc(C(F)(F)F)c(OC)c2)C(=O)N2C[C@H](OCC)C[C@H]2C(=O)N(C)C2(CCC2)C(=O)N(C)[C@@H](C2CCCC2)C(=O)N(C)[C@H](C(=O)N2CCCCC2)CC(=O)N1C [PP3103] ?
Completion: 0.21

====

assay.system: GDP-bound KRAS wild-type protein (Homo sapiens, UniProt P01116)
assay: Binding to KRAS by surface plasmon resonance (SPR), Single Cycle Kinetics
run.parameters: SPR, Single Cycle Kinetics, 1:1 binding model; GDP-bound KRAS wild-type protein; read-out: KRAS KD
Record form. Attribute: Kd. Fill in for each entry.
One number for each entry, in nM.

Sample records with Kd:
- smiles.structure: "CCCOC[C@H]1C(=O)N[C@@H]([C@@H](C)CC)C(=O)N(C)CC(=O)N(C)[C@H]2C/C=C\\CCN(C2=O)[C@@H](Cc2ccc(C(F)(F)F)cc2)C(=O)N(C)CC(=O)N[C@@H](CCc2cc(F)c(C(F)(F)F)c(F)c2)C(=O)N2C[C@H](OCC)C[C@H]2C(=O)NC2(CC(C)(C)C2)C(=O)N(C)[C@@H](C2CCCC2)C(=O)N(C)[C@H](C(=O)N(C)CC)CC(=O)N1C"
  display.unit: "nM"
  Kd: 0.078
- smiles.structure: "CCC[C@H]1C(=O)N[C@@H]([C@@H](C)CC)C(=O)N(C)CC(=O)N(C)[C@H]2C/C=C\\CCN(C2=O)[C@@H](Cc2ccc(C(F)(F)F)cc2)C(=O)N(C)CC(=O)N[C@@H](CCc2cc(F)c(C(F)(F)F)c(F)c2)C(=O)N2C[C@H](OCC)C[C@H]2C(=O)NC2(CCC2)C(=O)N(C)[C@@H](C2CCCC2)C(=O)N(C)[C@H](C(=O)N2CCCC2)CC(=O)N1C"
  display.unit: "nM"
  Kd: 0.14
- smiles.structure: "CCO[C@@H]1C[C@H]2C(=O)NC3(CCC3)C(=O)N(C)[C@@H](C3CCCC3)C(=O)N(C)[C@H](C(=O)N3CCOCC3)CC(=O)N(C)[C@@H](CC(C)C)C(=O)N[C@@H]([C@@H](C)CC)C(=O)N(C)CC(=O)N(C)[C@H]3C/C=C\\CCN(C3=O)[C@@H](Cc3ccc(C(F)(F)F)cc3)C(=O)N(C)CC(=O)N[C@@H](CCc3cc(F)c(C(F)(F)F)c(F)c3)C(=O)N2C1"
  display.unit: "nM"
  Kd: 0.2

Hi there! I need Kd for each item below, if you can.
1. CCO[C@@H]1C[C@H]2C(=O)NC3(CCC3)C(=O)N(C)[C@@H](C3CCCC3)C(=O)N(C)[C@H](C(=O)N(C)C)CC(=O)N(C)[C@@H](CSC)C(=O)N[C@@H]([C@@H](C)CC)C(=O)N(C)CC(=O)N(C)[C@H]3C/C=C\CCN(C3=O)[C@@H](CC3CCCCC3)C(=O)N(C)CC(=O)N[C@@H](CCc3cc(F)c(C(F)(F)F)c(F)c3)C(=O)N2C1
2. CCO[C@@H]1C[C@H]2C(=O)NC3(CC(C)(C)C3)C(=O)N(C)[C@@H](C3CCCC3)C(=O)N(C)[C@H](C(=O)N(C)C)CC(=O)N(C)[C@@H](CC)C(=O)N[C@@H]([C@@H](C)CC)C(=O)N(C)CC(=O)N(C)[C@H]3C/C=C\CCN(C3=O)[C@@H](Cc3ccc(C(F)(F)F)cc3)C(=O)N(C)CC(=O)N[C@@H](CCc3cc(F)c(C(F)(F)F)c(F)c3)C(=O)N2C1
3. CCO[C@@H]1C[C@H]2C(=O)NC3(CC(C)(C)C3)C(=O)N(C)[C@@H](C3CCCC3)C(=O)N(C)[C@H](C(=O)N(C)CC)CC(=O)N(C)[C@@H](CC)C(=O)N[C@@H]([C@@H](C)CC)C(=O)N(C)CC(=O)N(C)[C@H]3C/C=C\CCN(C3=O)[C@@H](Cc3ccc(C(F)(F)F)cc3)C(=O)N(C)CC(=O)N[C@@H](CCc3cc(F)c(C(F)(F)F)c(F)c3)C(=O)N2C1

Completion:
1: 0.13; 2: 0.047; 3: 0.087

====

assay.system: GDP-bound KRAS wild-type protein (Homo sapiens)
assay: Binding to KRAS by surface plasmon resonance (SPR), Single Cycle Kinetics
run.parameters: SPR, Single Cycle Kinetics, 1:1 binding model; GDP-bound KRAS wild-type protein; read-out: KRAS KD
recorded.metric: Kd (nM)
One number for each entry, in nM.

Hi there! I need Kd for each item below, if you can.
1. CCO[C@@H]1C[C@H]2C(=O)NC3(CCC3)C(=O)N(C)[C@@H](C3CCCC3)C(=O)N(C)[C@H](C(=O)N(C)C)CC(=O)N(C)[C@@H](CC(C)C)C(=O)N[C@@H]([C@@H](C)CC)C(=O)N(C)CC(=O)N(C)[C@H]3C/C=C\CCN(C3=O)[C@@H](Cc3ccc(C)cc3)C(=O)N(C)CC(=O)N[C@@H](CCc3cc(F)c(C(F)(F)F)c(F)c3)C(=O)N2C1
2. CC[C@H](C)[C@@H]1NC(=O)[C@H](CC)N(C)C(=O)C[C@@H](C(=O)N(C)C)N(C)C(=O)[C@H](C2CCCC2)N(C)C(=O)C2(CCCC2)NC(=O)[C@@H]2CCCN2C(=O)[C@H](CCc2cc(F)c(C(F)(F)F)c(F)c2)NC(=O)CN(C)C(=O)[C@H](Cc2ccc(C(F)(F)F)cc2)N2CC/C=C\C[C@@H](C2=O)N(C)C(=O)CN(C)C1=O
3. CCO[C@@H]1C[C@H]2C(=O)NC3(CCC3)C(=O)N(C)[C@@H](C(CC)CC)C(=O)N(C)[C@H](C(=O)N(C)C)CC(=O)N(C)[C@@H](CC(C)C)C(=O)N[C@@H]([C@@H](C)CC)C(=O)N(C)CC(=O)N(C)[C@H]3C/C=C\CCN(C3=O)[C@@H](CC3CCC(F)(F)CC3)C(=O)N(C)CC(=O)N[C@@H](CCc3cc(F)c(C(F)(F)F)c(F)c3)C(=O)N2C1
4. CCC[C@H]1C(=O)N[C@@H]([C@@H](C)CC)C(=O)N(C)CC(=O)N(C)[C@H]2C/C=C\CCN(C2=O)[C@@H](Cc2ccc(C(F)(F)F)cc2)C(=O)N(C)CC(=O)N[C@@H](CCc2cc(F)c(C(F)(F)F)c(F)c2)C(=O)N2C[C@H](OCC)C[C@H]2C(=O)NC2(CCC2)C(=O)N(C)[C@@H](C2CCCC2)C(=O)N(C)[C@H](C(=O)N(C)CCC)CC(=O)N1C

Completion:
0.074
0.12
0.46
0.066

Hi there! I need Kd for each item below, if you can.
1. CCO[C@@H]1C[C@H]2C(=O)NC3(CCC3)C(=O)N(C)[C@@H](C3CCCC3)C(=O)N(C)[C@H](C(=O)N3CCCC3)CC(=O)N(C)[C@@H](CC3CCC3)C(=O)N[C@@H]([C@@H](C)CC)C(=O)N(C)CC(=O)N(C)[C@H]3C/C=C\CCN(C3=O)[C@@H](Cc3ccc(C(F)(F)F)cc3)C(=O)N(C)CC(=O)N[C@@H](CCc3cc(F)c(C(F)(F)F)c(F)c3)C(=O)N2C1
2. CC[C@H](C)[C@@H]1NC(=O)[C@H](CC)N(C)C(=O)C[C@@H](C(=O)N(C)C)N(C)C(=O)[C@H](C2CCCC2)N(C)C(=O)C2(CCC2)NC(=O)[C@@H]2C[C@H](C)CN2C(=O)[C@H](CCc2cc(F)c(C(F)(F)F)c(F)c2)NC(=O)CN(C)C(=O)[C@H](CC2CCC(F)(F)CC2)N2CC/C=C\C[C@@H](C2=O)N(C)C(=O)CN(C)C1=O

Completion:
1. 0.14
2. 0.15
